test: gradient 5% acetonitrile 3 min, to 50% in 2 min, to 85% in 15 min, held 3 min, 100 µL/min; settings: column: Zorbax Extend-C18 2.1 x 50 mm; eluents: water / acetonitrile, 0.1% formic acid
Kind request: treat 900 s as inclusive, so RP-LC retention time at 900 s or higher is label 1, anything lower is label 0.

These recorded examples may help you get a feel for the data.
1) CN1C[C@@H]2c3ccccc3Oc3ccc(Cl)cc3[C@H]2C1; label 0
2) Cc1ccc(Cl)cc1NC(=O)N(C)CC1CCOCC1; label 0
3) CCC(C(=O)NCCN1CCOCC1)n1nc(C)c2nn(-c3ccccc3)c(C)c2c1=O (stereo not given); label 0

In plain terms: is recorded RP-LC retention time at least 900 s for O=C(NCc1cccc2ccccc12)NCC1CN(c2ccccc2)C(=O)O1 (stereo not given) ?
label 0

In plain terms: is recorded RP-LC retention time at least 900 s for CS(=O)(=O)c1ccc(Cl)c(NC(=O)c2cccnc2)c1 ?
label 0

In plain terms: is recorded RP-LC retention time at least 900 s for c1ccc(C(NCCNC(c2ccccc2)c2ccccc2)c2ccccc2)cc1 ?
label 0

In plain terms: is recorded RP-LC retention time at least 900 s for CCc1noc(NC(C)=O)c1-c1ccc(C)c(S(=O)(=O)NCc2ccccc2OC)c1 ?
label 0

In plain terms: is recorded RP-LC retention time at least 900 s for COc1cc(OC)cc(-c2nc(C3CC(=O)N(c4ccc(Cl)cc4)C3)no2)c1 (stereo not given) ?
label 1

In plain terms: is recorded RP-LC retention time at least 900 s for CCn1cc(S(=O)(=O)N2CCC(C3CCN(C(=O)NC)CC3)C2)cn1 (stereo not given) ?
label 0

In plain terms: is recorded RP-LC retention time at least 900 s for Cc1ccc(N2CC(c3noc(-c4ccc(C#N)cc4)n3)CC2=O)cc1 (stereo not given) ?
label 1

In plain terms: is recorded RP-LC retention time at least 900 s for Cc1cc(-c2ccc(S(=O)(=O)N3CCC(C(=O)NC4CCCC4)CC3)o2)n[nH]1 ?
label 0

In plain terms: is recorded RP-LC retention time at least 900 s for CC1=C(C(=O)N2CCOCC2)C(c2ccc(Cl)cc2)C2=C(CC(C)(C)CC2=O)N1 (stereo not given) ?
label 0

In plain terms: is recorded RP-LC retention time at least 900 s for C=CCN(CC=C)C(=O)C1CCN(C(=O)c2cccc(F)c2)CC1 ?
label 1

In plain terms: is recorded RP-LC retention time at least 900 s for Cc1ccccc1CNS(=O)(=O)c1c(C)sc(C)c1-c1n[nH]c(C)c1C ?
label 1

In plain terms: is recorded RP-LC retention time at least 900 s for CCOC(=O)c1c(NC(=O)C2CCN(S(C)(=O)=O)CC2)sc2ccccc12 ?
label 1

In plain terms: is recorded RP-LC retention time at least 900 s for CCOC(=O)CSc1nnc(NC(=O)c2ccc(S(=O)(=O)N(C)C)cc2)s1 ?
label 0

In plain terms: is recorded RP-LC retention time at least 900 s for CCN(CC)C(=O)c1ccc(-c2nc3cc(NS(=O)(=O)c4cc(F)ccc4C)ccc3n2C)cc1 ?
label 0

* * *

test: gradient 5% acetonitrile 3 min, to 50% in 2 min, to 85% in 15 min, held 3 min, 100 µL/min; settings: column: Zorbax Extend-C18 2.1 x 50 mm; eluents: water / acetonitrile, 0.1% formic acid
EXPERIMENTAL_ENDPOINT: RP-LC retention time (s)
Report the figure in s without appending any unit label.

1) COc1ccc(-c2nnc(-c3ccc(OC)c(S(=O)(=O)N4CCOCC4)c3)o2)cc1OC; 768
2) CCOC(=O)c1c(CN(C)C)n(-c2ccccc2)c2cc(-c3cccnc3)c(O)cc12; 576
3) CCCn1c(C)cnc1C1CN(S(=O)(=O)c2cc(Cl)ccc2Cl)C1; 607
4) CCCC(CCC)C(=O)NCCc1c[nH]c2ccc(C)cc12; 996
5) COCCC1CCN(C(=O)COc2cccc(Cl)c2)CC1; 855

What does the data say about its RP-LC retention time? Entry: O=C(c1cc(-c2ccc(F)c(F)c2)on1)N1CCC(Cn2cccn2)CC1
797

What does the data say about its RP-LC retention time? Entry: Nn1c(Cc2ccccc2)nnc1Cc1ccccc1
744

What does the data say about its RP-LC retention time? Entry: CSc1nc(N2CCCC2)c2cnn(CCNC(=O)CSc3ccc(F)cc3)c2n1
829

What does the data say about its RP-LC retention time? Entry: CCNC(=O)c1nc(-c2ccnc(N3CCOCC3)c2)no1
644

What does the data say about its RP-LC retention time? Entry: CN(CC1(C)CCOCC1)S(=O)(=O)c1ccccc1C(F)(F)F
820
